Biological target: T1, interleukin-23 receptor (IL-23R) (UniProt Q5VWK5 24-629, limits assumed)
T1 sequence (looked up): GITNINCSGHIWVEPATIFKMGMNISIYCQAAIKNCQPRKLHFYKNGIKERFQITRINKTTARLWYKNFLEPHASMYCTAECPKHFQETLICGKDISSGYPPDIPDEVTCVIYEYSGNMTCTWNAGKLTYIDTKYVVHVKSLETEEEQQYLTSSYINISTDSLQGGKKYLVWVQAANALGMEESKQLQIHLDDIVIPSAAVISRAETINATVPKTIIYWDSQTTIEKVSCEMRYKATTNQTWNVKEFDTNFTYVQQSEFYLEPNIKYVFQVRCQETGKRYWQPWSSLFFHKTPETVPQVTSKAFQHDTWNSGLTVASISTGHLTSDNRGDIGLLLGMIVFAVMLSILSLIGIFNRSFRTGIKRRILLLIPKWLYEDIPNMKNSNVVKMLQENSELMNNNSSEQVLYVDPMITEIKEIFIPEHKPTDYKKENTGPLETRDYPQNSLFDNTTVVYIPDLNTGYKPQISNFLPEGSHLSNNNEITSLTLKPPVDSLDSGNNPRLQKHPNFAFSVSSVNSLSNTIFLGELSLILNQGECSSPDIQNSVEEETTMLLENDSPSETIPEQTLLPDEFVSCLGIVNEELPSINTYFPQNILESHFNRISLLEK
Assay: cell-based or functional assay
*1 amine or outer side, *2 acyl side, *3 side chain or, on linkers, in order; H or OH if unused. Bridges are numbered along the chain shown (N, C = ends). Primed or numbered codes have the meaning given here. Where no end group is shown, it is not given here. Side-chain parts run from the residue outwards. [ ]: non-standard residue; d: D form. The star is where a group is joined. code d = side-chain group of K(d): lysine given as (2R)-2-(4-((5-amino-5-carboxypentyl)amino)-4-oxobutanamido)-3-carboxy-N,N,N-trimethylpropan-1-aminium, C[N+](C)(C)C[C@@H](CC(=O)O)NC(=O)CCC(=O)*; PEG2′ = PEG2 spacer unit (not further defined); Trp(7-Me) = Cc1cccc2c(C[C@H](N)C(=O)O)c[nH]c12; γGlu = O=C(O)[C@H](CCC(=O)[*:2])N[*:1]; 2Nal = N[C@@H](Cc1ccc2ccccc2c1)C(=O)O; AEF = NCCOc1ccc(C[C@H](N)C(=O)O)cc1; 3Pal = N[C@@H](Cc1cccnc1)C(=O)O; NMecPEG3a = not defined here; Pen = CC(C)(S)[C@H](N)C(=O)O; PEG12′ = not defined here; PEG2″ = PEG2 spacer unit; Thp = NC1(C(=O)O)CCOCC1; Sar = CNCC(=O)O

>  <binder>
XNTXKXXXXKNXX (MeCO-Pen(3)-N-T-7MeW-K(NMecPEG3a)-Pen(3)-AEF-2Nal-THP-K(PEG2PEG2gEC18OH)-N-3Pya-Sar-CONH2) [SEQ ID NO: 86]

>  <PBMC pSTAT3 IC50>
< 0.5 nM

$$$$
>  <binder>
[dR][Pen]NT[Trp(7-Me)]K(Ac)[Pen][AEF][2Nal][Thp]K(code d)N[3Pal][Sar]-NH2 (disulfide 2-7 (inferred); not fully specified (N-terminus); printed as HOC18gEPEG2PEG2CO-r-Pen(3)-N-T-7MeW-K(Ac)-Pen(3)-AEF-2Nal-THP-K(d)-N-3Pya-Sar-CONH2) [SEQ ID NO: 45]

>  <PBMC pSTAT3 IC50>
< 0.5 nM

$$$$
>  <binder>
Ac-[dR][Pen]NT[Trp(7-Me)]K(Ac)[Pen][AEF][2Nal][Thp]EN[3Pal][Sar]K([PEG12′-γGlu-C18OH])-NH2 (disulfide 2-7 (inferred)) [SEQ ID NO: 133]

>  <PBMC pSTAT3 IC50>
< 0.5 nM

$$$$
>  <binder>
Ac-[dR][Pen]NT[Trp(7-Me)]Q[Pen][AEF][2Nal][Thp]EN[3Pal][Sar]K([PEG2′-PEG2′-γGlu-C18OH])-NH2 (disulfide 2-7 (inferred)) [SEQ ID NO: 38]

>  <PBMC pSTAT3 IC50>
< 0.5 nM

$$$$
>  <binder>
XNTXXXXXXKNXX (cPEG3aCO-Pen(3)-N-T-7MeW-K(Ac)-Pen(3)-AEF-2Nal-THP-K(PEG2PEG2gEC18OH)-N-3Pya-Sar-CONH2) [SEQ ID NO: 78]

>  <PBMC pSTAT3 IC50>
< 0.5 nM

$$$$
>  <binder>
{HOC18-γGlu-PEG12′}-[Pen]NTK(Ac)[Pen][AEF][2Nal][Thp]EN[3Pal][Sar]-NH2 (disulfide 1-5 (inferred); not fully specified; printed as HOC18gEPEG12CO-Pen(3)-N-T-K(Ac)-Pen(3)-AEF-2Nal-THP-E-N-3Pya-Sar-CONH2) [SEQ ID NO: 116]

>  <PBMC pSTAT3 IC50>
< 0.5 nM

$$$$
>  <binder>
Ac-[dR][Pen]K([PEG2″-PEG2″-γGlu-C18OH])T[Trp(7-Me)]K(NMecPEG3a)[Pen][AEF][2Nal][Thp]EN[3Pal][Sar]-NH2 (disulfide 2-7 (inferred); reading uncertain; also: printed as MeCO-r-Pen(3)-K(PEG2PEG2gEC18OH)-T-7MeW-K(NMecPEG3a)-Pen(3)-AEF-2Nal-THP-E-N-3Pya-Sar-CONH2) [SEQ ID NO: 76]

>  <PBMC pSTAT3 IC50>
< 0.5 nM

$$$$

Source: patent US20260250320A1
